biological target: T1, Abz-LPETGK(Dnp)-CONH2
T1 chain: LPETGK
Non-standard residues stand in square brackets, D forms with d. No end group written: not given here. *: point of attachment. Dnp = O=[N+]([O-])c1ccc(*)c([N+](=O)[O-])c1; 2Abz = Nc1ccccc1C(=O)O
Task for the reader: assign each of the following proteins its reported kcat/Km (Hz/M).
Answers are plain numbers, in Hz/M.

Consider the following illustrative entries.
>  <protein>
eSrtA(2A-6) (protein) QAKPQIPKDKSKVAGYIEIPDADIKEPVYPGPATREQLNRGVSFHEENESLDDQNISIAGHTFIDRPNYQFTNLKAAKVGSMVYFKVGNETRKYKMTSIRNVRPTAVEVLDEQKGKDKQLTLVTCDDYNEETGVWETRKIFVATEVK

>  <kcat/Km (Hz/M)>
47.8

$$$$
>  <protein>
eSrtA(2A-5) (protein) QAKPQIPKDKSKVAGYIEIPDADIKEPVYPGPATREQLNHGVSFHEENESLDDQNISIAGHTFIDRPNYQFTNLKAAKIGSMVYFKVGNETRKYKMTSIRNVRPTAVEVLDEQKGKDKQLTLVTCDDYNEETGVWETRKIFVATEVK

>  <kcat/Km (Hz/M)>
28.1

$$$$
>  <protein>
2A.6C (protein) QAKPQIPKDKSKVAGYIEIPDADIKEPVYPGPATREQLNRGVSFHEENESLDDQNISIAGHTFIDRPNYQFTNLKAAKPGSMVYFKVGNETRIYKMTSIRKVRPTAVEVLDEQKGKDKQLTLVTCDDYNEETGVWETRKIFVATEVK

>  <kcat/Km (Hz/M)>
38.7

$$$$
>  <protein>
4S.6C (protein) QAKPQIPKDKSKVAGYIEIPDADIKEPVYPGPATREQLDRGVSFVEENESLDDQNISITGHTAIDRPNYQFTNLRAAKKGSMVYFKVGNETRKYKMTSIRNVKPTAVEVLDEQKGKDKQLTLVTCDDYNFETGVWETRKIFVATEVK

>  <kcat/Km (Hz/M)>
235

$$$$
>  <protein>
eSrtA(4S-6) (protein) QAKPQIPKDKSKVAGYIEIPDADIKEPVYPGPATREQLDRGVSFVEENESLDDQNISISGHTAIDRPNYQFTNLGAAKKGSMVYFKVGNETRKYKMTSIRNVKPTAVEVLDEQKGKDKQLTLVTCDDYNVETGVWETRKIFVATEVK

>  <kcat/Km (Hz/M)>
854

$$$$

Items follow; give kcat/Km (Hz/M) for each.
1. eSrtA(2A-3.5) (enzyme) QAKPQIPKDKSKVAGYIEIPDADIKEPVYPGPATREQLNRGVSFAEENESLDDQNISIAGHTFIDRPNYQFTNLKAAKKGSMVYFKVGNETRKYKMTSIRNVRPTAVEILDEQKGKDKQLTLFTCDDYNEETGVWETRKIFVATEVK
2. eSrtA(4S-4) (protein) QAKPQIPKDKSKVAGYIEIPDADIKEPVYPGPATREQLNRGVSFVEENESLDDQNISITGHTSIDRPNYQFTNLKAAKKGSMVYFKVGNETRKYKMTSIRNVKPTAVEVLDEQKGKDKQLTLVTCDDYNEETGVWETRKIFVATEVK

[reply]
386
283
